Each recorded value in this set is attributed to ChEMBL document CHEMBL2401654.

pKi values for the compounds below.
- Tested Target: Histamine H3 receptor (Homo sapiens, UniProt Q9Y5N1)
- Sequence (Q9Y5N1 whole entry): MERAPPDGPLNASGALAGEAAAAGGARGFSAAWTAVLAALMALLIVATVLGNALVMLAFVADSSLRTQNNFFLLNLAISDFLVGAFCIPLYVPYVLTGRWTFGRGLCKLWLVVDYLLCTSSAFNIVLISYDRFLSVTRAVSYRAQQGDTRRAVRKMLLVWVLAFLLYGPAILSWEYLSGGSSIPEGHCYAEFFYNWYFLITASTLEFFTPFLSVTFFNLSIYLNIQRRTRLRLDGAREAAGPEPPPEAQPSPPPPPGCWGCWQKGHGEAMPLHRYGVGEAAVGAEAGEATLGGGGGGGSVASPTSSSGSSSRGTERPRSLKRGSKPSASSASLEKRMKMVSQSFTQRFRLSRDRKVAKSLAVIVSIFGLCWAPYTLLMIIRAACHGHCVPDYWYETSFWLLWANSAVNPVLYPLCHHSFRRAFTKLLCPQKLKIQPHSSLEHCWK
- Assay Comment: Displacement of [3H]N-alpha-methylhistamine from recombinant human histamine H3 receptor transfected in CHO cell membranes after 1 hr by scintillation counting analysis
pKi: −log10 of the molar value.

{"columns": ["Smiles", "pKi"],
 "data": [
  ["Cc1cc(N2CC[C@@H](N3CCC[C@@H]3C)C2)ccc1NC(=O)c1cc(F)ccc1C", 7.74],
  ["Cc1cc(N2CC[C@H](N3CCC[C@@H]3C)C2)ccc1NC(=O)c1cc(F)ccc1C", 8.47],
  ["Cc1cc(N2CC[C@@H](N3CCC[C@H]3C)C2)ccc1NC(=O)c1cc(F)ccc1C", 6.52],
  ["Cc1cc(N2CC[C@H](N3CCC[C@H]3C)C2)ccc1NC(=O)c1cc(F)ccc1C", 6.09]
]}
